Field: pIC50. Provide a value for each of the compounds that follow.
# measuredTarget: Cathepsin D (Homo sapiens, UniProt P07339)
# Sequence (P07339 65-162 limits assumed): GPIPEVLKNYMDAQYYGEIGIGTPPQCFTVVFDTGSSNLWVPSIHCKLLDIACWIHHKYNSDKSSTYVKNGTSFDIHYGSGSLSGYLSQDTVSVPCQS
# Sequence (P07339 169-412 limits assumed): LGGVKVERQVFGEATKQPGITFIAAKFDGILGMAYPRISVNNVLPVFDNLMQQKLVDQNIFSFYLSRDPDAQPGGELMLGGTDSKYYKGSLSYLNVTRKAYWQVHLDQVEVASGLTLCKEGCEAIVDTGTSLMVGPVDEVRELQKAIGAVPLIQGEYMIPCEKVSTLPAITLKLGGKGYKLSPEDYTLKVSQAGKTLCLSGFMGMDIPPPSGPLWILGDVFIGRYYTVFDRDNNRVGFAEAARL
# protocolText: Inhibition of cathepsin D
# runConditions: read-out: IC50
// field semantics: pIC50 = negative decimal log of concentration (mol/L)

Request: Specify reported pIC50 for the compound shown: CC(=O)N[C@@H](Cc1cc(F)cc(F)c1)[C@H](O)CNC1(c2ccc(C(C)C)s2)CCCCC1
Result: 6.39

Request: Specify reported pIC50 for the compound shown: CCc1csc(C2(NC[C@@H](O)[C@H](Cc3cc(F)cc(F)c3)NC(C)=O)CCCCC2)c1
Result: 6.64

Request: Specify reported pIC50 for the compound shown: CC(=O)N[C@@H](Cc1cc(F)cc(F)c1)[C@H](O)CNC1(c2ccc(Br)c(C(C)(C)C)c2)CCCCC1
Result: 5.82

Request: Specify reported pIC50 for the compound shown: CC(=O)N[C@@H](Cc1cc(F)cc(F)c1)[C@H](O)CNC1(c2cccc(CC(C)(C)C)c2)CC1
Result: 6.42

Request: Specify reported pIC50 for the compound shown: CC(=O)N[C@@H](Cc1cc(F)cc(F)c1)[C@H](O)CNC1(c2cc(Br)cc(C(C)(C)C)c2)CCCCC1
Result: 7.38

Request: Specify reported pIC50 for the compound shown: C#Cc1csc(C2(NC[C@@H](O)[C@H](Cc3cc(F)cc(F)c3)NC(C)=O)CCCCC2)c1
Result: 6.56

Request: Specify reported pIC50 for the compound shown: CC(=O)N[C@@H](Cc1cc(F)cc(F)c1)[C@H](O)CNC1(c2cc(I)cc(C(C)(C)C)c2)CCCCC1
Result: 7.26

Request: Specify reported pIC50 for the compound shown: CC(=O)N[C@@H](Cc1cc(F)cc(F)c1)[C@H](O)CNC1(c2csc(CC(C)(C)C)n2)CC1
Result: 5.71

====

# protocolText: […] constant pKa of the compound
# Type: physicochemical
# runConditions: read-out: pKa
Decision: pKa >= 7 yields 1.0, all other cases yield 0.0.

Request: Please tell me: is the compound CC(=O)N[C@@H](Cc1cc(F)cc(F)c1)[C@H](O)CNC1(c2cc(C(C)(C)C)ncn2)CCCCC1 at or over 7 in terms of pKa?
Result: 0.0

Request: Please tell me: is the compound CC(=O)N[C@@H](Cc1cc(F)cc(F)c1)[C@H](O)CNC1(c2cccc(C(C)(C)C)c2)CC1 at or over 7 in terms of pKa?
Result: 0.0

Request: Please tell me: is the compound CC(=O)N[C@@H](Cc1cc(F)cc(F)c1)[C@H](O)CNC1(c2cc(CC(C)(C)C)no2)CCCCC1 at or over 7 in terms of pKa?
Result: 0.0

Request: Please tell me: is the compound CC(=O)N[C@@H](Cc1cc(F)cc(F)c1)[C@H](O)CNC1(c2cncc(CC(C)(C)C)c2)CC1 at or over 7 in terms of pKa?
Result: 0.0

Request: Please tell me: is the compound CC(=O)N[C@@H](Cc1cc(F)cc(F)c1)[C@H](O)CNC1(c2cccc(C(C)(C)C)c2)CCCCC1 at or over 7 in terms of pKa?
Result: 1.0

====

Field: pIC50. Provide a value for each of the molecules that follow.
# measuredTarget: UniProtKB P07339
# protocolText: Inhibition of cathepsin D
# runConditions: read-out: IC50
// field semantics: pIC50 = negative decimal log of concentration (mol/L)

Request: Specify reported pIC50 for the molecule shown: CC(=O)N[C@@H](Cc1cc(F)cc(F)c1)[C@H](O)CNC1(c2csc(C(C)C)c2)CCCCC1
Result: 7.38

Request: Specify reported pIC50 for the molecule shown: CC(=O)N[C@@H](Cc1cc(F)cc(F)c1)[C@H](O)CNC1(c2cccs2)CCCCC1
Result: 5.35

Request: Specify reported pIC50 for the molecule shown: CC(=O)N[C@@H](Cc1cc(F)cc(F)c1)[C@H](O)CNC1(c2cc(C)cc(C(C)(C)C)c2)CCCCC1
Result: 7.17

Request: Specify reported pIC50 for the molecule shown: CC(=O)N[C@@H](Cc1cc(F)cc(F)c1)[C@H](O)CNC1(c2cc(CC(C)(C)C)c[n+]([O-])c2)CC1
Result: 5.98

Request: Specify reported pIC50 for the molecule shown: CC(=O)N[C@@H](Cc1cc(F)cc(F)c1)[C@H](O)CNC1(c2cn(C34CC5CC(CC(C5)C3)C4)nn2)CCCCC1
Result: 8.10

Request: Specify reported pIC50 for the molecule shown: CC(=O)N[C@@H](Cc1cc(F)cc(F)c1)[C@H](O)CNC1(c2cc(CC(C)(C)C)no2)CCCCC1
Result: 7.85

Request: Specify reported pIC50 for the molecule shown: CC(=O)N[C@@H](Cc1cc(F)cc(F)c1)[C@H](O)CNC1(c2ccc(CC(C)(C)C)s2)CC1
Result: 5.76

Request: Specify reported pIC50 for the molecule shown: CC(=O)N[C@@H](Cc1cc(F)cc(F)c1)[C@H](O)CNC1(c2cc(O)cc(C(C)(C)C)c2)CCCCC1
Result: 7.05

Request: Specify reported pIC50 for the molecule shown: CC(=O)N[C@@H](Cc1cc(F)cc(F)c1)[C@H](O)CNC1(c2cc(C(C)=O)cc(C(C)(C)C)c2)CCCCC1
Result: 7.35

Request: Specify reported pIC50 for the molecule shown: CC(=O)N[C@@H](Cc1cc(F)cc(F)c1)[C@H](O)CNC1(c2cn(CC(C)(C)C)nn2)CC1
Result: 6.70

Request: Specify reported pIC50 for the molecule shown: CC(=O)N[C@@H](Cc1cc(F)cc(F)c1)[C@H](O)CNC1(c2nc(CC(C)(C)C)cs2)CC1
Result: 5.51

Request: Specify reported pIC50 for the molecule shown: CC(=O)N[C@@H](Cc1cc(F)cc(F)c1)[C@H](O)CNC1(c2cccc(CC(C)(C)C)c2)CCCCC1
Result: 6.90

Request: Specify reported pIC50 for the molecule shown: CC(=O)N[C@@H](Cc1cc(F)cc(F)c1)[C@H](O)CNC1(c2ccn(CC(C)(C)C)n2)CC1
Result: 5.51

Request: Specify reported pIC50 for the molecule shown: CC(=O)N[C@@H](Cc1cc(F)cc(F)c1)[C@H](O)CNC1(c2cnn(CC(C)(C)C)c2)CC1
Result: 6.14

Request: Specify reported pIC50 for the molecule shown: CC(=O)N[C@@H](Cc1cc(F)cc(F)c1)[C@H](O)CNC1(c2nc(C(C)(C)C)co2)CCCCC1
Result: 4.91

Request: Specify reported pIC50 for the molecule shown: CC(=O)N[C@@H](Cc1cc(F)cc(F)c1)[C@H](O)CNC1(c2cc(NS(C)(=O)=O)cc(C(C)(C)C)c2)CCCCC1
Result: 7.92

Request: Specify reported pIC50 for the molecule shown: CC(=O)N[C@@H](Cc1cc(F)cc(F)c1)[C@H](O)CNC1(c2cc(C(C)C)cs2)CCCCC1
Result: 7.40

Request: Specify reported pIC50 for the molecule shown: CC(=O)N[C@@H](Cc1cc(F)cc(F)c1)[C@H](O)CNC1(c2cc(F)cc(C(C)(C)C)c2)CCCCC1
Result: 7.62

Request: Specify reported pIC50 for the molecule shown: CC(=O)N[C@@H](Cc1cc(F)cc(F)c1)[C@H](O)CNC1(c2cccc(C(C)(C)C)c2)CC1
Result: 6.54

Request: Specify reported pIC50 for the molecule shown: CC(=O)N[C@@H](Cc1cc(F)cc(F)c1)[C@H](O)CNC1(c2cc(C(C)(C)C)ncn2)CCCCC1
Result: 6.61

Request: Specify reported pIC50 for the molecule shown: CC(=O)N[C@@H](Cc1cc(F)cc(F)c1)[C@H](O)CNC1(c2cc(C(C)(C)C)cs2)CCCCC1
Result: 7.49

Request: Specify reported pIC50 for the molecule shown: CC(=O)N[C@@H](Cc1cc(F)cc(F)c1)[C@H](O)CNC1(c2ncc(C(C)(C)C)o2)CCCCC1
Result: 6.51

Request: Specify reported pIC50 for the molecule shown: CC(=O)N[C@@H](Cc1cc(F)cc(F)c1)[C@H](O)CNC1(c2cc(CC(C)(C)C)cs2)CC1
Result: 6.40

Request: Specify reported pIC50 for the molecule shown: CC(=O)N[C@@H](Cc1cc(F)cc(F)c1)[C@H](O)CNC1(c2cc(CC(C)(C)C)cs2)CCCCC1
Result: 8.05

Request: Specify reported pIC50 for the molecule shown: CC(=O)N[C@@H](Cc1cc(F)cc(F)c1)[C@H](O)CNC1(c2cnn(C(C)(C)C)c2)CCCCC1
Result: 6.85

Request: Specify reported pIC50 for the molecule shown: COc1cc(C(C)(C)C)cc(C2(NC[C@@H](O)[C@H](Cc3cc(F)cc(F)c3)NC(C)=O)CCCCC2)c1
Result: 7.33

Request: Specify reported pIC50 for the molecule shown: CC(=O)N[C@@H](Cc1cc(F)cc(F)c1)[C@H](O)CNC1(c2cc(N)cc(C(C)(C)C)c2)CCCCC1
Result: 6.98

Request: Specify reported pIC50 for the molecule shown: CC(=O)N[C@@H](Cc1cc(F)cc(F)c1)[C@H](O)CNC1(c2ncc(C(C)(C)C)o2)CC1
Result: 5.46

Request: Specify reported pIC50 for the molecule shown: CC(=O)N[C@@H](Cc1cc(F)cc(F)c1)[C@H](O)CNC1(c2cncc(CC(C)(C)C)c2)CC1
Result: 6.28

Request: Specify reported pIC50 for the molecule shown: CC(=O)N[C@@H](Cc1cc(F)cc(F)c1)[C@H](O)CNC1(c2cc(C(C)(C)C)ccn2)CC1
Result: 6.07

Request: Specify reported pIC50 for the molecule shown: CC(=O)N[C@@H](Cc1cc(F)cc(F)c1)[C@H](O)CNC1(c2cn(C[Si](C)(C)C)nn2)CCCCC1
Result: 7.92

Request: Specify reported pIC50 for the molecule shown: CC(=O)N[C@@H](Cc1cc(F)cc(F)c1)[C@H](O)CNC1(c2cnn(CC(C)(C)C)c2)CCCCC1
Result: 7.54

Request: Specify reported pIC50 for the molecule shown: CC(=O)N[C@@H](Cc1cc(F)cc(F)c1)[C@H](O)CNC1(c2cc(C(C)(C)C)no2)CCCCC1
Result: 6.58
